Hey, just so you know, these numbers are from ChEMBL document CHEMBL4311969.

assayExplanation: Protective index, ratio of TD50 for neurotoxicity against ip dosed Kunming mouse assessed as time remained in rod measured at 0.5 hrs by rotarod test to ED50 for […] activity in ip dosed Kunming mouse assessed as reduction in formalin-induced paw licking administered 0.5 hrs before formalin stimulation
Format: toxicity, organism-based
measurementConditions: in vivo, read-out: PI
experimentalEndpoint: selectivity ratio at 0.5 h

Some solved cases for reference:
# structureSmilesString, selectivity ratio at 0.5 h
data = [
    ("COc1cc(OC)c(OC)cc1/C=C/COC(=O)/C=C/c1ccccc1C(F)(F)F", "> 8.1"),
    ("COc1cc(OC)c(OC)cc1/C=C/COC(=O)/C=C/c1ccc(OC)c(OC)c1", "> 10.7"),
    ("COc1ccc(/C=C/C(=O)OC/C=C/c2cc(OC)c(OC)cc2OC)cc1", "> 8.2"),
    ("COc1cc(OC)c(OC)cc1/C=C/COC(=O)/C=C/c1ccccc1Cl", "> 9.9"),
]

Ask | Please indicate selectivity ratio at 0.5 h recorded for COc1cc(OC)c(OC)cc1/C=C/COC(=O)/C=C/c1ccc(Cl)cc1
Reply | > 9.3

* * *

assayExplanation: Protective index, ratio of TD50 for neurotoxicity against ip dosed Kunming mouse assessed as time remained in rod measured at 0.5 hrs by rotarod test to ED50 for anticonvulsant activity in ip dosed Kunming mouse assessed as reduction in ScPTZ-induced seizure administered 0.5 hrs before ScPTZ stimulation
Format: toxicity, organism-based
measurementConditions: in vivo, read-out: PI
Give measured selectivity ratio at 0.5 h for each item. Keep answers brief.

# structureSmilesString, selectivity ratio at 0.5 h
data = [
    ("COc1cc(OC)c(OC)cc1/C=C/COC(=O)/C=C/c1ccccc1Cl", "> 6.7"),
    ("COc1cc(OC)c(OC)cc1/C=C/COC(=O)/C=C/c1ccc(OC)c(OC)c1OC", "> 4.9"),
]

Provide each entry's selectivity ratio at 0.5 h from the list below.
1. COc1cccc(/C=C/C(=O)OC/C=C/c2cc(OC)c(OC)cc2OC)c1
2. COc1cc(OC)c(OC)cc1/C=C/COC(=O)/C=C/c1ccc(OC)c(OC)c1
3. COc1cc(OC)c(OC)cc1/C=C/COC(=O)/C=C/c1ccc(Cl)cc1

Reply |
> 4.1
> 5.8
> 7.1

* * *

Organism: Homo sapiens
assayExplanation: Inhibition of human LDH5 at 0.5 mM using sodium pyruvate as substrate by UV-VIS spectrophotometry method relative to control
Calls of active or inactive are those of the source. No cut-off for these calls is given here.
experimentalEndpoint: inhibition

Some solved cases for reference:
# molecule, inhibition
records = [
    ("COc1ccccc1/C=C/C(=O)OC/C=C/c1cc(OC)c(OC)cc1OC", "inactive"),
    ("CC(C)(C)C(O)/C=C/c1ccc2c(c1)OCO2 (stereo unspecified)", "inactive"),
    ("COc1cc(OC)c(OC)cc1/C=C/COC(=O)/C=C/c1cccc(Br)c1", "< 9%"),
    ("COc1cc(OC)c(OC)cc1/C=C/COC(=O)/C=C/c1c(OC)ccc(OC)c1OC", "Active"),
    ("COc1cc(OC)c(OC)cc1/C=C/COC(=O)/C=C/c1cc(OC)c(OC)c(OC)c1", "13%"),
    ("COc1cc(OC)c(OC)cc1/C=C/COC(=O)/C=C/c1ccc(Cl)cc1", "< 9%"),
]

Provide each entry's inhibition from the list below.
1. COc1cc(OC)c(OC)cc1/C=C/COC(=O)/C=C/c1cccc(Cl)c1
2. COc1cc(OC)c(OC)cc1/C=C/COC(=O)/C=C/c1ccccc1F
3. COc1cc(OC)c(OC)cc1CCCOC(=O)/C=C/c1cc(OC)c(OC)c(OC)c1
4. COc1cc(/C=C/C(=O)OC/C=C/c2cc(OC)c(OC)cc2OC)cc(OC)c1
5. COc1cc(OC)c(OC)cc1/C=C/COC(=O)/C=C/c1ccc(C(F)(F)F)cc1
6. COc1cc(OC)c(OC)cc1/C=C/COC(=O)/C=C/c1c(OC)c(OC)cc(OC)c1OC

Reply |
["< 9%", "< 9%", "9%", "inactive", "< 9%", "Active"]

* * *

Species on record: Homo sapiens
assayExplanation: Inhibition of human LDH5 at 0.5 mM using sodium pyruvate as substrate by UV-VIS spectrophotometry method relative to control
experimentalEndpoint: inhibition

# structureSmilesString, inhibition
records = [
    ("COc1cc(OC)c(OC)cc1/C=C/COC(=O)/C=C/c1ccc(OC)c(OC)c1OC", "8%"),
]

Ask | Please indicate inhibition recorded for COc1cc(OC)c(OC)cc1/C=C/CNC(=O)/C=C/c1cc(OC)c(OC)c(OC)c1
Reply | 9%
